Data origin, for the record: PubChem BioAssay AID2060609

# Test system: 855422-203-R-J1-PDC complex spheroids, viability
# ASSAY REMARKS: Anticancer human tumor 855422-203-R-J1-PDC patient-derived bladder carcinoma cell line growth inhibition [CLK]
# PARTICULARS: curve of first compound; second compound 0.316 µM
pIC50: −log10 of the molar value.
Readings of pIC50 for the listed molecules
READOUT LABEL: pIC50

1. CCN1CCN(Cc2ccc(Nc3ncc(F)c(-c4cc(F)c5nc(C)n(C(C)C)c5c4)n3)nc2)CC1 + CN1CCN(c2cc(C(=O)Nc3cc4cc(-c5cnn(C)c5)ccc4cn3)ccn2)CC1
> 8.50
2. Nc1ccccc1NC(=O)c1ccc(CNC(=O)OCc2cccnc2)cc1 + CNC(=O)c1ccc(Nc2nc(OC3CCCC3)c3c(-c4ccc5nc(C)oc5c4)c[nH]c3n2)c(OC)c1
> 7.50
3. CCN1CCN(Cc2ccc(Nc3ncc(F)c(-c4cc(F)c5nc(C)n(C(C)C)c5c4)n3)nc2)CC1 + CNC(=O)c1ccc(Nc2nc(OC3CCCC3)c3c(-c4ccc5nc(C)oc5c4)c[nH]c3n2)c(OC)c1
> 8.50

---

# System: 855422-203-R-J1-PDC complex spheroids, viability
# ASSAY REMARKS: Anticancer human tumor 855422-203-R-J1-PDC cell line growth inhibition [CLK];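 also: spheroids exposed to drugs for seven days before readout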;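 as to viability, T/C: 100% = DMSO vehicle control wells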
# PARTICULARS: second compound 10 µM; first compound 0.316 µM; stronger effect = lower value
READOUT LABEL: viability, T/C (%)

1. COc1cccc2c1C(=O)c1c(O)c3c(c(O)c1C2=O)CC(O)(C(=O)CO)CC3OC1CC(N)C(O)C(C)O1 (stereo not given) + CNC(=O)c1ccc(Nc2nc(OC3CCCC3)c3c(-c4ccc5nc(C)oc5c4)c[nH]c3n2)c(OC)c1
0.35
2. C=CC(=O)N1CCN(c2nc(=O)n(-c3c(C)ccnc3C(C)C)c3nc(-c4c(O)cccc4F)c(F)cc23)C(C)C1 (stereo not given) + CN1CCN(c2cc(C(=O)Nc3cc4cc(-c5cnn(C)c5)ccc4cn3)ccn2)CC1
0.4
3. O=C(c1cc(Cc2n[nH]c(=O)c3ccccc23)ccc1F)N1CCN(C(=O)C2CC2)CC1 + CNC(=O)c1ccc(Nc2nc(OC3CCCC3)c3c(-c4ccc5nc(C)oc5c4)c[nH]c3n2)c(OC)c1
17.9
4. COC1C=CCC(C)C(C)S(=O)(=O)NC(=O)c2ccc3c(c2)N(CC2CCC21)CC1(CCCc2cc(Cl)ccc21)CO3 (stereo not given) + CN1CCN(c2cc(C(=O)Nc3cc4cc(-c5cnn(C)c5)ccc4cn3)ccn2)CC1
0.31
5. Nc1ccn(C2OC(CO)C(O)C2(F)F)c(=O)n1 (stereo not given) + CN1CCN(c2cc(C(=O)Nc3cc4cc(-c5cnn(C)c5)ccc4cn3)ccn2)CC1
0.24
6. CC1COCCN1c1cc(C2(S(C)(=N)=O)CC2)nc(-c2ccnc3[nH]ccc23)n1 (stereo not given) + CNC(=O)c1ccc(Nc2nc(OC3CCCC3)c3c(-c4ccc5nc(C)oc5c4)c[nH]c3n2)c(OC)c1
21
7. CC1(C)CCC(CN2CCN(c3ccc(C(=O)NS(=O)(=O)c4ccc(NCC5CCOCC5)c([N+](=O)[O-])c4)c(Oc4cnc5[nH]ccc5c4)c3)CC2)=C(c2ccc(Cl)cc2)C1 + CN1CCN(c2cc(C(=O)Nc3cc4cc(-c5cnn(C)c5)ccc4cn3)ccn2)CC1
0.36
8. COc1ccc([C@@H](O)c2cc(-c3ncnc4cc(N5CCOCC5)ccc34)c(F)cc2Cl)nn1 + CN1CCN(c2cc(C(=O)Nc3cc4cc(-c5cnn(C)c5)ccc4cn3)ccn2)CC1
0.24
9. CC1COCCN1c1cc(C2(S(C)(=N)=O)CC2)nc(-c2ccnc3[nH]ccc23)n1 (stereo not given) + CN1CCN(c2cc(C(=O)Nc3cc4cc(-c5cnn(C)c5)ccc4cn3)ccn2)CC1
0.9
10. C#Cc1c(F)ccc2cc(O)cc(-c3ncc4c(N5CC6CCC(C5)N6)nc(OCC56CCCN5CC(F)C6)nc4c3F)c12 (stereo not given) + CN1CCN(c2cc(C(=O)Nc3cc4cc(-c5cnn(C)c5)ccc4cn3)ccn2)CC1
0.3
